- Assayed Target: T1, human IL-23R endogenously expressed on DB cells (human, UniProt Q5VWK5 24-629)
- T1 sequence (looked up): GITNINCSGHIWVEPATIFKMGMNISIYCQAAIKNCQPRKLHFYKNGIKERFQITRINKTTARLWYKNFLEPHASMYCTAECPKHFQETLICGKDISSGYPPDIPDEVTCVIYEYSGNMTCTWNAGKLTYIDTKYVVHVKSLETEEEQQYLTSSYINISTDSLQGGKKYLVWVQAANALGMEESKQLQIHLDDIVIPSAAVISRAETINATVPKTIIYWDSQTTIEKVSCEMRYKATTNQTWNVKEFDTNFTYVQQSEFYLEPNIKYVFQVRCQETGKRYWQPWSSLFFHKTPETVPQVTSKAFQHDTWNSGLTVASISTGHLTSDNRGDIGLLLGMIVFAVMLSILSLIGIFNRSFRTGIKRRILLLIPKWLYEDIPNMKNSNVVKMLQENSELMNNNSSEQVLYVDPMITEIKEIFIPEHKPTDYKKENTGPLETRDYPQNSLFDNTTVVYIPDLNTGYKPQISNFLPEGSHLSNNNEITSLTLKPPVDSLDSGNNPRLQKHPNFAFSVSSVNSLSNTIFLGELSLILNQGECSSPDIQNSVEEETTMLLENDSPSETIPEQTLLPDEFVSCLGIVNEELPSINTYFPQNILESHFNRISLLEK
- Experimental Protocol: cell-based or functional assay
*1 amine or outer side, *2 acyl side, *3 side chain or, on linkers, in order; H or OH if unused. Bridges are numbered along the chain shown (N, C = ends). Primed or numbered codes have the meaning given here. [ ]: non-standard residue; d: D form. The star is where a group is joined. 4‑Aminomethyl‑phenylacetyl = 4-aminomethyl-phenylacetyl unit, its amine closes the lactam, O=C(Cc1ccc(CN[*:1])cc1)[*:2]; Q(pyrrolidin)″ = (2S)-2-amino-5-oxo-5-pyrrolidin-1-yl-pentanoic acid, O=C(CC[C@H](N[*:1])C(=O)[*:2])N1CCCC1; NH(4-(3-pyridyl)butyl) = c1cncc(CCCCN*)c1; 2Nal = N[C@@H](Cc1ccc2ccccc2c1)C(=O)O; AEF = NCCOc1ccc(C[C@H](N)C(=O)O)cc1; αMeL = CC(C)C[C@](C)(N)C(=O)O; Dab = NCC[C@H](N)C(=O)O
Recorded measurements of hIL-23 (pSTAT3) antagonist IC50, one per entry
Measure: hIL-23 (pSTAT3) antagonist IC50 (nM)

INSERT INTO measurements (binder, measure, assay_result) VALUES
  ('[4‑Aminomethyl‑phenylacetyl]SEWQ[Dab][AEF][2Nal][αMeL]E[Dab]-{NH(4-(3-pyridyl)butyl)} (lactam N-10, 3-6) [Compound 6]', 'hIL-23 (pSTAT3) antagonist IC50', 3.2),
  ('[4‑Aminomethyl‑phenylacetyl]SEW[Q(pyrrolidin)″][Dab][AEF][2Nal][αMeL]E[Dab]-NH2 (lactam N-10, 3-6) [Ref 146]', 'hIL-23 (pSTAT3) antagonist IC50', 42),
  ('[4‑Aminomethyl‑phenylacetyl]SEWQ[Dab][AEF][2Nal][αMeL]E[Dab][H(Me)]-NH2 (lactam N-10, 3-6) [Compound 14]', 'hIL-23 (pSTAT3) antagonist IC50', 7.2);

Source of measurements: patent EP4471049A1
